Each record here notes measured inhibition.
# system name: MAP kinase-interacting serine/threonine-protein kinase 1 (Homo sapiens);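 further: each value is an averaged percent inhibition of MKNK1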
# test settings: at 1 µM
Output should be the measured figure followed by the unit it is expressed in.

• CCS(=O)(=O)c1ccc(OC)c(Nc2ncc(-c3cccc(F)c3)o2)c1 = 19.5%
• COc1cc2c(cc1Nc1nc(Nc3cccc(F)c3C(N)=O)c3cc[nH]c3n1)N(C(=O)CN1CCN(C(C)C)CC1)CC2 = 1.42%
• CNC(=O)c1sc(-n2cnc3cc(OC)c(OC)cc32)cc1OCc1ccccc1C(F)(F)F = 4.03%
• Cn1c(-c2nonc2N)nc2cnccc21 = 7.55%
• Cc1ccc(-c2cc3c(NC(=O)C4CC4)ncnc3o2)cc1 = 6.36%
• COc1ccc(-c2nn3ncccc3c2-c2ccnc(Nc3ccc(F)c(F)c3)n2)cc1 = 6.32%
• CC1(C)CC(n2cnc(-c3ccc(F)cc3)c2-c2ccnc(N)n2)CC(C)(C)N1 = 2.81%
• CNC(=O)c1cncc(/C=C/c2ccccc2C)c1 = 29.4%

Problem: Entry "NS(=O)(=O)c1ccc(N/N=C2\C(=O)Nc3cccc(CCc4ccncc4)c32)cc1" has what inhibition?
Result: 0.27%

Problem: Entry "c1cnn2ncc(-c3ccnc(NCCCN4CCOCC4)n3)c2c1" has what inhibition?
Result: 10.9%

Problem: Entry "COc1ccc2ncn(-c3cc(O[C@H](C)c4ccccc4C(F)(F)F)c(C(N)=O)s3)c2c1" has what inhibition?
Result: 3.25%

Problem: Entry "O=C(Nc1n[nH]c2nnc(-c3cccnc3)cc12)C1CC1" has what inhibition?
Result: -0.29%

Problem: Entry "COC(=O)Nc1nc2cc(Oc3ccc(NC(=O)Nc4ccccc4)cc3)ccc2[nH]1" has what inhibition?
Result: 6.54%

Problem: Entry "O=C(O[C@H]1CN[C@H](C#Cc2cc3ncnc(Nc4ccc5c(cnn5Cc5ccccc5)c4)c3s2)C1)N1CCOCC1" has what inhibition?
Result: 9.35%

---

# system name: Inhibitor of nuclear factor kappa-B kinase subunit alpha (Homo sapiens);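 further: mean inhibition of IKKA, from the GSK PKIS data set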
# test settings: at 1 µM
readout kind: inhibition
Output should be the measured figure followed by the unit it is expressed in.

Recorded inhibition, per entry:
- OCCCNc1nccc(-c2c(-c3ccc(F)cc3)nn3cc(C(F)(F)F)ccc23)n1: 1.51%
- CS(=O)(=O)CCNCc1ccc(-c2ccc3ncnc(Nc4ccc(OCc5ccccc5)cc4)c3c2)o1: 3.98%
- CCS(=O)(=O)c1ccc(OC)c(Nc2ncc(-c3cccc(F)c3)o2)c1: 11%
- CS(=O)(=O)CCNCc1ccoc1-c1ccc2ncnc(Nc3ccc(OCc4ccccc4)cc3)c2c1: 8.23%

Turning to the following compound.
Problem: Entry "N#Cc1cccc(Nc2ncc(-c3ccccc3)o2)c1" has what inhibition?
Result: 3.79%

---

# system name: Tyrosine-protein kinase CSK (Homo sapiens);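 further: each value is an averaged inhibition reading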
# test settings: at 1 µM
Each record here notes measured inhibition.
Answer with a number only, understood to be in %.

* CN(c1ccc(NC(=O)NCCN2CCOCC2)cc1)c1ccnc(Nc2ccc(CS(C)(=O)=O)cc2)n1 | 13.1

Problem: Entry "FC(F)(F)CNc1nccc(-c2cnn3ncccc23)n1" has what inhibition?
Result: 0.56

Problem: Entry "CS(=O)(=O)CCNCc1ccc(-c2ccc3ncnc(Nc4ccc(OCc5cccc(C(F)(F)F)c5)cc4)c3c2)o1" has what inhibition?
Result: 3.02

---

Each record here notes measured inhibition.
# system name: Ribosomal protein S6 kinase alpha-1 (Homo sapiens);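 further: values are mean percent inhibition of RSK1 measured in the GSK PKIS kinase inhibitor set screen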
# test settings: at 0.1 µM
Answer with a number only, understood to be in %.

Recorded inhibition, per entry:
* COc1cccc(Nc2nccc(-c3cnn4ncccc34)n2)c1 | 0.64
* O=C(O[C@H]1CN[C@H](C#Cc2cc3ncnc(Nc4ccc(OCc5cccc(F)c5)c(Cl)c4)c3s2)C1)N1CCOCC1 | 1.45
* COc1cc(N2CCN(C(C)C)CC2)ccc1Nc1nc(Nc2cccc3ncccc23)c2cc[nH]c2n1 | 0.19
* CN(c1ccc(NC(=O)NCCN2CCOCC2)cc1)c1ccnc(Nc2ccc(CS(C)(=O)=O)cc2)n1 | 1.1
* CC(C)c1ccc(-c2cc(-c3c[nH]nc3-c3ccccn3)ccn2)cc1 | -0.37

Turning to the following molecule.
Problem: Entry "CNC(=O)c1cncc(/C=C/c2ccccc2C)c1" has what inhibition?
Result: 2.39
